# System: SR leukemia
# ASSAY_EXPLANATION: NCI tumour cell line growth inhibition, 48 h
OBSERVED_PROPERTY: TGI

These recorded examples may help you get a feel for the data.
| MOLECULE | TGI |
| --- | --- |
| CCCCOC(=O)Nc1ccc(S(=O)(=O)Nc2ccccc2Cl)cc1 | 26.8 µM |
| COc1ccc(/C=c2\sc3n(c2=O)CCN=3)cc1 | > 100 µM |
| Nc1n[nH]c2cccc(C#Cc3cccc(C(=O)Nc4ccc(CN5CCOCC5)c(C(F)(F)F)c4)c3)c12 | > 100 µM |
| COC(=O)C1=C(C(=O)OC)SC(=C2SCSC3=C2SC(C(=O)OC)=C(C(=O)OC)C32SC3=C(CCCC3)S2)S1 | > 100 µM |
| Cc1cc(C)nc(NS(=O)(=O)c2ccc(NC(=O)c3ccc4nc5ccccc5c(Nc5ccc(S(N)(=O)=O)cc5)c4c3)cc2)n1 | > 100 µM |

Which TGI value belongs to CN1CC[C@@H](NC(=O)Nc2ccc(C#N)cc2)C[C@@H]1c1nc2ccccc2[nH]1 ?
> 100 µM

Given the entry Cc1ccc(-c2csc(=Nc3ccccc3)n2NC(=O)c2ccncc2)cc1 , report its measured TGI.
> 100 µM

Name the reported TGI value associated with the molecule C/C(=N/Nc1ccc([N+](=O)[O-])cc1[N+](=O)[O-])C(CC(C(=O)NCc1ccccc1)/C(C)=N\Nc1ccc([N+](=O)[O-])cc1[N+](=O)[O-])C(=O)NCc1ccccc1 (configuration not stated)
35.7 µM

---

# System: IGROV1 ovarian
# ASSAY_EXPLANATION: NCI tumour cell line growth inhibition, 48 h
OBSERVED_PROPERTY: TGI

# annotated cases, reported TGI shown
| STRUCTURE_SMILES_STRING | MEAS_VALUE |
| --- | --- |
| Nn1c(Nc2ccc(S(=O)(=O)Nc3ncccn3)cc2)nnc(/C=C/c2c(O)ccc3ccccc23)c1=O | > 100 µM |
| O=C(O)c1nc2nc(Cl)c(Cl)nc2[nH]1 | > 100 µM |

Any idea what TGI was measured for C=C(C)CCOC(c1ccccc1)(c1ccccc1)c1ccccc1 ?
> 100 µM

---

# System: HOP-62 NSCLC
# ASSAY_EXPLANATION: NCI tumour cell line growth inhibition, 48 h
OBSERVED_PROPERTY: TGI

Here are 2 compounds together with their reported answers.
| COMPOUND | MEAS_VALUE |
| --- | --- |
| CC(=O)N(C(=O)CC(=O)N1N=C(c2ccccc2)C(N=Nc2ccccc2[N+](=O)[O-])C1=O)c1ccc(Cl)cc1 (stereo not drawn) | > 10 µM |
| COC(=O)CC(c1ccccc1)C1(c2ccccc2)SCCS1 (stereo not drawn) | > 290 µM |

Now let's try a different one.
TGI lookup needed for CC(=O)/C=C/C1=C(C)CCCC1(C)CC(C)C (stereo not drawn) , thanks.
> 100 µM

---

# Test system: DMS 114 small cell lung
# ASSAY_EXPLANATION: NCI tumour cell line growth inhibition, 48 h
OBSERVED_PROPERTY: TGI

Sample answers from the record:
| COMPOUND | TGI |
| --- | --- |
| O=S(=O)(N/N=C/c1cccc(/C=N/NS(=O)(=O)c2ccccc2)c1)c1ccccc1 | > 100 µM |
| S=c1sc2c(n1-c1ccccc1)NC=NC2S (configuration not stated) | > 100 µM |
| CCCCN(CCCC)C(=O)C(=O)C(C(=O)c1ccc(OC)cc1)c1ccc(OC)cc1 (configuration not stated) | > 100 µM |
| C=CC[C@H](C[C@H](C[C@H](C[C@H](C[C@H](C[C@H](C[C@H](C[C@H](C[C@H](C[C@H](CCCCC)OC)OC)OC)OC)OC)OC)OC)OC)OC)OC | > 100 µM |
| Cc1cccc(C)c1NC(=O)CCCC(=O)C1/C(=N/NC(=O)CC#N)CCC/C1=N\NC(=O)CC#N (configuration not stated) | > 100 µM |

Entry COc1ccc(C)cc1-c1cc(Sc2ccccc2)c(-c2cc(C)ccc2OC)o1 : reported TGI = ?
> 31.6 µM

// lookup TGI for N#C/C(=C\c1cccc(Cl)c1Cl)c1ccccc1
> 73.1 µM

---

# Test system: BT-549 breast
# ASSAY_EXPLANATION: NCI tumour cell line growth inhibition, 48 h
Overview of recorded TGI for various molecules
Quick note: give the figure in µM, leave out the unit.

I'd like to know its TGI. The molecule in question is C[C@]12CCC3C4=C(CCC3C1CCC2=O)C(=O)[C@H]1O[C@H]1C4=O (stereo partly drawn)
4.83

Requested read-out: TGI. Entry: CC(C)[C@@H]1C=C2CC[C@H]3[C@](C)(CN)CCC[C@]3(C)[C@H]2CC1
35.4

Returns the measured TGI for the input molecule. Input: O=C(Oc1ccc(Cl)cc1)c1ccccc1Nc1ccnc(C(F)(F)F)c1
41.2

What measured TGI goes with Nn1c(Nc2ccc(S(=O)(=O)Nc3ncccn3)cc2)nnc(/C=C/c2c(O)ccc3ccccc23)c1=O ?
60

---

Recorded TGI, one value per entry.
# System: PC-3 prostate
# ASSAY_EXPLANATION: NCI tumour cell line growth inhibition, 48 h

Examples from the recorded data:
| MOLECULE | TGI |
| --- | --- |
| COc1ncc(/C=C2\OC(=O)c3ccccc32)c(OC)n1 | > 100 µM |
| Cc1cc(Nc2ccc(S(=O)(=O)O)c3cc(S(=O)(=O)O)cc(S(=O)(=O)O)c23)c2ccccc2n1 | > 100 µM |
| CC(=O)/C=C/C1=C(C)CCCC1(C)CC(C)C (stereo not given) | > 100 µM |

Lab request: please report TGI under test system PC-3 prostate for Oc1ccc(Cc2cc(Cc3ccc(O)cc3)cc(Cc3ccc(O)cc3)c2)cc1
> 50 µM

Value wanted: TGI (PC-3 prostate) of entry CC(C)c1cc2c(cc1S(=O)(=O)O)[C@@]1(C)CCC[C@@](C)(C(=O)O)C1CC2 (stereo not given in full)
> 100 µM

---

# System: RXF 393 renal
# ASSAY_EXPLANATION: NCI tumour cell line growth inhibition, 48 h
OBSERVED_PROPERTY: TGI

These recorded examples may help you get a feel for the data.
| COMPOUND | OBSERVED_PROPERTY | MEAS_VALUE |
| --- | --- | --- |
| COc1ncc(/C=C2\OC(=O)c3ccccc32)c(OC)n1 | TGI | > 100 µM |
| O=C(O)c1nc2nc(Cl)c(Cl)nc2[nH]1 | TGI | > 100 µM |

Pending compound:
What measured TGI goes with S=c1sc2c(n1-c1ccccc1)NC=NC2S (stereo not drawn) ?
> 100 µM

---

# System: HOP-92 NSCLC
# ASSAY_EXPLANATION: NCI tumour cell line growth inhibition, 48 h
OBSERVED_PROPERTY: TGI

| COMPOUND | TGI |
| --- | --- |
| C=C1CCN2CC[C@@H](OC(=O)/C(C)=C\C)[C@@H]12 | > 100 µM |
| COc1ccc(OC)c(N2CC(N)C2=O)c1 (stereo unspecified) | > 100 µM |
| NC(N)=Nc1ccc(CC(N)NCC(=O)O)cc1 (stereo unspecified) | > 25 µM |
| CC(=O)Nn1c(=S)[nH]c2ccccc21 | > 100 µM |

Value lookup for TGI; key = O=C(N/N=C/c1ccc(Cl)cc1)c1c(Cl)c(Cl)c(Cl)c(Cl)c1-c1nc2ccccc2[nH]1
> 100 µM

Consider the compound shown here: O=S(=O)(c1ccccc1)c1cccc2c1NCCC2 What is its recorded TGI?
> 100 µM

---

# System: ACHN renal
# ASSAY_EXPLANATION: NCI tumour cell line growth inhibition, 48 h; in the data active = GI50 below about 0.43 µM; inactive = the rest
Permitted responses: active, inactive

Check out these entries, answers already filled in.
| MOLECULE | STUDY_TARGET | QUALITATIVE_LABEL |
| --- | --- | --- |
| Nc1cc(NN=C(c2ccc(O)cc2)c2ccc(O)cc2)c([N+](=O)[O-])cc1[N+](=O)[O-] | ACHN renal | inactive |
| CC1=C2C(=C[C@@](C)(CO)[C@@H]2O)C(=O)[C@](C)(O)C12CC2 | ACHN renal | active |
| COc1cccc(C(=O)NC(c2ccc(C)cc2)c2cc(Cl)c3cccnc3c2O)c1 (configuration not stated) | ACHN renal | inactive |
| COc1ccc(/C=N/NC(=O)c2cccc3cc[nH]c23)cc1O | ACHN renal | inactive |
| Nc1ccc(C2=NNC(=O)Cc3cc4c(cc32)OCCO4)cc1Cl | ACHN renal | inactive |

What is the recorded call for this molecule in the test? C=C1C(=O)O[C@H]2[C@H]1CC/C(COC(=O)NCc1ccc(Cn3c(=O)sn(-c4ccc(OC)cc4)c3=O)cc1)=C\CC[C@@]1(C)O[C@@H]21
inactive

Please state the recorded outcome for this molecule: COc1ccc2nc(NC(=O)CSc3nnc4n3S(=O)(=O)c3ccccc3N4c3ccccc3)sc2c1
inactive

Every entry's value here was drawn from PubChem BioAssay (NCI).
